Documented pKd across a set of binders
biological target: T1, human PDGFRB extracellular domain (human, UniProt P09619 33-532); assay: binding assay on immobilised human PDGFRB ectodomain, apparent affinity (Example 4)
T1 construct: extracellular domain; also called hPDGFRB-ECD; human PDGFRB ectodomain
T1 sequence (P09619 33-532): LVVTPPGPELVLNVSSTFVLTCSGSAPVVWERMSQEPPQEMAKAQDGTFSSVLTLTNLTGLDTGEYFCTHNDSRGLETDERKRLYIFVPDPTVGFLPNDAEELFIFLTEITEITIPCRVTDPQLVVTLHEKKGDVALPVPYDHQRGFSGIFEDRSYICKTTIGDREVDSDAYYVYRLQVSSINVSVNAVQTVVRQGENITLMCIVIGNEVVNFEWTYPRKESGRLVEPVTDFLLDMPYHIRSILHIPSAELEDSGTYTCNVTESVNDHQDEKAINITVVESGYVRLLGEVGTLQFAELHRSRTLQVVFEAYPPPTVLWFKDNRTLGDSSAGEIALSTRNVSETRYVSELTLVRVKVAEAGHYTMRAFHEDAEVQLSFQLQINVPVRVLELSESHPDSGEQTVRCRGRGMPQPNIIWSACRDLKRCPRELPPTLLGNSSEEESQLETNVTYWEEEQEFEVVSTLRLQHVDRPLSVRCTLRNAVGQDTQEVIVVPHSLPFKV
pKd: −log10 of the molar value.

{"binder": "SP05P (VHH, Llama VHH; on phage in the phage ELISA) VHH: EVQLVESGGGLVQAGGSLRLSCAASGRTSFSGYAMAWFRQAPGKERDFVASITWSYGYTYYTDSAQGRFTISRDSAKNTVYLEMNSLKPEDTAVYYCAADPKASRFRILREYAYWGQGTQVTVSS", "pKd": 8.04}
{"binder": "SP07P (VHH, Llama VHH; on phage in the phage ELISA) VHH: EVQLVESGGGSVQTGGSLRLSCAASGRSFSTYAMAWFRQAPGKEREFVAAINRRATDTVYADSAKGRFIISRDNDKNTVYLQMDSLKTEDTAVYYCAAAKNAYDWRWDRLRDRDYWGQRGQGTQVTVSS", "pKd": 8.00}
{"binder": "SP20P (VHH, Llama VHH; on phage in the phage ELISA) VHH: EVQLVESGGGLVQAGGSLRLSCVISGRTSPTYPMGWFRQSPGNEREFVASINWSGGWRNYADSVKDRFTISRDDAKNTVYLQMNSLKPEDTAVYYCARGQYSSGTPVYAHEYAYWGQGTQVTVSS", "pKd": 8.42}
{"binder": "SP14P (VHH, Llama VHH; on phage in the phage ELISA) VHH: EVQLVESGGGLVQAGDSLRLSCVVSGLTFSRYGMGWFRQATGKEREFVGGISVGSSGTMYPNSVKGRFTISRDNAKSTVYLQMNSLKPEDTAVYFCAAIDQGSFVQQRDYRYWGQGTQVTVSS", "pKd": 8.07}
{"binder": "SP13P (VHH, Llama VHH; on phage in the phage ELISA) VHH: EVQLVESGGGLVQPGGSLRLSCAASESIFSINYMAWYRQAPGKQRELVAFSIDGSSTNYVDSVRGRFTASRDNAENTLYLQMNSLKPEDTAVYYCYAQGNTWAAGVWGQGTQVTVSS", "pKd": 8.03}
